These measurements were taken from ChEMBL document CHEMBL1140582.

assay: AUC in mouse; format: ADME, organism-based; conditions: plasma
measured.property: AUC (ng·h/mL)
# output: bare number, implied unit ng·h/mL

Prompt: # get_value(readout='AUC', item= CC1(C)[C@H]2CC=C(CN3CCC(Nc4nc(-c5cc(C(F)(F)F)cc(C(F)(F)F)c5)ns4)CC3)[C@@H]1C2 )
Response: 10800

====

target: Cytochrome P450 2D6 (Homo sapiens, UniProt P10635); assay: Inhibition of CYP2D6; type: ADME
Sequence (P10635 whole entry): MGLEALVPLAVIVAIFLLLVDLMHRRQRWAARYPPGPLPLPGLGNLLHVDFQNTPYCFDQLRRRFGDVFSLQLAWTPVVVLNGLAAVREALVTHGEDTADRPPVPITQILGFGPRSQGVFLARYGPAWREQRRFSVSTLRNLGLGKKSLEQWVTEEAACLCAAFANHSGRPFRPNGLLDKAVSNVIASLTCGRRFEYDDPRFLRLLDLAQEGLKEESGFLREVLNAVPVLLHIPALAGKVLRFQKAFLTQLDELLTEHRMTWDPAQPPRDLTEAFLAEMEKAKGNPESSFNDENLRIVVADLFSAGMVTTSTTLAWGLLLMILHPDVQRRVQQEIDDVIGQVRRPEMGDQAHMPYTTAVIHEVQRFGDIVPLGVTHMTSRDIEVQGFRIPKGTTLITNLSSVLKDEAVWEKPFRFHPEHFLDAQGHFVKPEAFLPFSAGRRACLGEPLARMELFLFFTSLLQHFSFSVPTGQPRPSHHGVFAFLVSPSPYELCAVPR
measured.property: Activity (µM)
# output: bare number, implied unit µM

1. CN(c1nc2ccc(Cl)cc2s1)C1CCN(CC2=CC[C@H]3C[C@@H]2C3(C)C)CC1	7.3
2. CN(c1nc2ccccc2s1)C1CCN(CC2=CC[C@H]3C[C@@H]2C3(C)C)CC1	2.2

Okay, next one:
Prompt: # get_value(readout='Activity', item= CN(c1nc2cc(Cl)ccc2s1)C1CCN(CC2=CC[C@H]3C[C@@H]2C3(C)C)CC1 )
Response: 3.5

====

target: UniProt P49682; experiment: Binding affinity to human CXCR3 receptor expressed in CHO membrane by ITAC-stimulated GTP gammaS assay
Sequence (P49682 whole entry): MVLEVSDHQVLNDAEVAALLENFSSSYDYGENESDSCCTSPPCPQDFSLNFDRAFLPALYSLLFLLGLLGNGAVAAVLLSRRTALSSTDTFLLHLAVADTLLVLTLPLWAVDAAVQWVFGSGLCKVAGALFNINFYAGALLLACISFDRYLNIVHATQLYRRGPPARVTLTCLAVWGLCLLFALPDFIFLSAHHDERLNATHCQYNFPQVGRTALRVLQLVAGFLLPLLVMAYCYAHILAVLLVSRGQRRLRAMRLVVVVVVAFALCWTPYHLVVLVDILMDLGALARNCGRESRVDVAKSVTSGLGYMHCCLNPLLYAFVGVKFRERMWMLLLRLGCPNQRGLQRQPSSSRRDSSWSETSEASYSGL
# maps each entry to its pKi
Worth noting: pKi values are minus log10 of concentrations stated in mol/L.

Worked set:
1. CN(c1nc2ccc(Cl)cc2s1)C1CCN(CC2=CC[C@H]3C[C@@H]2C3(C)C)CC1	6.77
2. CC1(C)[C@H]2CC=C(CN3CCC(Nc4nc5ccccc5s4)CC3)[C@@H]1C2	6.46
3. CSc1cccc(N2C(=O)CN(C3CCN(CC4=CC[C@H]5C[C@@H]4C5(C)C)CC3)C2=O)c1	6.12
4. CC1(C)[C@H]2CC=C(CN3CCC(Nc4nc(-c5ccc(Cl)c(Cl)c5)cs4)CC3)[C@@H]1C2	6.34
5. CN(c1nc2ccccc2s1)C1CCN(CC2=CC[C@H]3C[C@@H]2C3(C)C)CC1	6.85
6. CCc1cccc(N2C(=O)CN(C3CCN(CC4=CC[C@H]5C[C@@H]4C5(C)C)CC3)C2=O)c1	6.42
7. CN(c1nc2ccccc2o1)C1CCN(CC2=CC[C@H]3C[C@@H]2C3(C)C)CC1	6.14
8. CCN(C(=O)Nc1cccc(C(F)(F)F)c1)C1CCN(CC2=CC[C@H]3C[C@@H]2C3(C)C)CC1	5.44

Prompt: # get_value(readout= pKi, system= UniProt P49682) for CC1(C)[C@H]2CC=C(CN3CCC(Nc4nc5ccc(Br)cc5s4)CC3)[C@@H]1C2
Response: 6.89

Prompt: # get_value(readout= pKi, system= UniProt P49682) for CN(C(=O)Nc1cccc(C(F)(F)F)c1)C1CCN(CC2=CC[C@H]3C[C@@H]2C3(C)C)CC1
Response: 6.74

Prompt: # get_value(readout= pKi, system= UniProt P49682) for CN(c1nc2c(Cl)cccc2s1)C1CCN(CC2=CC[C@H]3C[C@@H]2C3(C)C)CC1
Response: 6.34

Prompt: # get_value(readout= pKi, system= UniProt P49682) for CC1(C)[C@H]2CC=C(CN3CCC(N4CC(=O)N(c5cc(C(F)(F)F)cc(C(F)(F)F)c5)C4=O)CC3)[C@@H]1C2
Response: 7.59

Prompt: # get_value(readout= pKi, system= UniProt P49682) for CN(c1nc2cccc(Cl)c2s1)C1CCN(CC2=CC[C@H]3C[C@@H]2C3(C)C)CC1
Response: 6.21
